Target: mutant auxin receptor (TIR1 F79G) (Arabidopsis thaliana, UniProt Q570C0, F79G)
Construct: expressed in transfected cells; host or cells: Saccharomyces cerevisiae strain EGY48
Sequence (Q38822 1-93): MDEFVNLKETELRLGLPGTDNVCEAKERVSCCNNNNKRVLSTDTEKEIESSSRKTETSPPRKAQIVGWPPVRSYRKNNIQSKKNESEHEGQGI
Sequence (Q570C0 whole entry F79G): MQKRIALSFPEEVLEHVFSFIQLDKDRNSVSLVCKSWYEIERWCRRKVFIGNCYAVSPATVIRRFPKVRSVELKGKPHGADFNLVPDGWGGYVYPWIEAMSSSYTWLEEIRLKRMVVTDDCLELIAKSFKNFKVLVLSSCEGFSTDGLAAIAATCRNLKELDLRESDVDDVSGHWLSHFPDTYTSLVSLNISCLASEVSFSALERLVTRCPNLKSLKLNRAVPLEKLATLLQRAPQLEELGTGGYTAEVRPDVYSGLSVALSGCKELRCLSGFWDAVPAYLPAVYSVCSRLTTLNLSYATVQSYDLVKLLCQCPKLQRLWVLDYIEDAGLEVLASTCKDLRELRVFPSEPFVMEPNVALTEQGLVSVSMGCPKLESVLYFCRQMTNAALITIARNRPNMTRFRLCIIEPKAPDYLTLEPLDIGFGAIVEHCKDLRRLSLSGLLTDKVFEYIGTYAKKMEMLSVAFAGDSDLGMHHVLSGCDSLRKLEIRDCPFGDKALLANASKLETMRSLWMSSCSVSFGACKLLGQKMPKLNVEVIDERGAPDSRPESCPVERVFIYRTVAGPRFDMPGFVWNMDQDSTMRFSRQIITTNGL
Assay: Evaluation of binding to auxin receptor (yeast two-hybrid assay), mutant TIR1 F79G
Conditions: yeast EGY48, LacZ reporter, X-gal, 30° C. for 3 days; TIR1 F79G with AUX/IAA protein
From the text: Test Example 1: Evaluation of Binding to Auxin Receptor (Yeast Two-Hybrid Assay Specifically, the inventors set up the assay in the following manner. […]
Consider the following compounds; for each one, report its mut TIR: minimum concentration of the test compound in which the well turns blue.
One number for each entry, in µM.

compound=COc1ccc(-c2ccc3[nH]cc(CC(=O)O)c3c2)cc1C result=10
compound="CCC(C)COc1ccc2[nH]cc(CC(=O)O)c2c1 (centres unmarked)" result=0.1
compound=O=C(O)Cc1c[nH]c2cc(-c3cccc(Oc4ccccc4)c3)ccc12 result=0.1

Give one value of mut TIR: minimum concentration of the test compound in which the well turns blue per listed compound.
1. COc1ccccc1-c1ccc2[nH]cc(CC(=O)O)c2c1 [Example 27A, 5-(2-methoxyphenyl)-indole-3-acetic acid]
2. Cc1ccc(COc2ccc3[nH]cc(CC(=O)O)c3c2)cc1

[reply]
10
100
